Each recorded value in this set is attributed to ChEMBL document CHEMBL1201862.

# Test system: SK-MEL-28
# Method Notes: NCI tumour cell line growth inhibition, 48 h
Active and inactive are the calls of the source. No stated cut-off is given here; in the data, active = GI50 up to about 1.1 µM and inactive = higher.
Reported GI50 values for the following compounds.

Worked examples, 5 compounds total:
[[record]]
compound = "S=C(Nc1ccc(Cl)cc1)c1ccc(CN2CCCCC2)s1"
result = "4.24 µM (inactive)"

[[record]]
compound = "CC1(C)CC2C(=O)c3ccccc3NC2c2ccccc21 (stereo unspecified)"
result = "5.51 µM (inactive)"

[[record]]
compound = "c1ccc(CCCNc2nnnc3ccccc23)cc1"
result = "> 100 µM (inactive)"

[[record]]
compound = "CN(C)Cc1ccc(O)c(CN(C)C)n1"
result = "> 100 µM (inactive)"

[[record]]
compound = "O=C(CC(O)(C(F)(F)F)C(F)(F)Cl)CC(O)(C(F)(F)F)C(F)(F)Cl (stereo unspecified)"
result = "4.34 µM (inactive)"


Could you now look at the following compound, please?
[in] Endpoint output: GI50 of CC(C)N1CCOC(c2ccc(O)c(O)c2)C1 (stereo unspecified) . Value?
[out] > 100 µM (inactive)

----------
# Tested on: UO-31
# Method Notes: NCI tumour cell line growth inhibition, 48 h
Activity calls are given as the source filed them. No stated cut-off is given here; in the data, active = GI50 up to about 1.1 µM and inactive = higher.
Assay Readout: GI50

Worked examples, 2 compounds total:
[[record]]
compound_structure_string = "CCCCNC(=S)Nc1nc(C(=O)NNC(=S)NCC)cs1"
result = "31.6 µM (inactive)"

[[record]]
compound_structure_string = "COc1cc2c(cn1)[nH]c1ccccc12"
result = "> 100 µM (inactive)"


[in] Endpoint output: GI50 of COc1ccc(NC(=O)/C(=C/c2ccc(N(CCC#N)CCC#N)cc2)NC(=O)c2cc([N+](=O)[O-])ccc2Cl)cc1 . Value?
[out] 9.91 µM (inactive)

----------
# Test system: EKVX
# Method Notes: NCI tumour cell line growth inhibition, 48 h
Active and inactive are the calls of the source. No stated cut-off is given here; in the data, active = GI50 up to about 1.1 µM and inactive = higher.
Thanks in advance; please answer with one of these: active, inactive

[[record]]
compound = "Nc1ccc(-c2nc3ccccc3s2)cc1Br"
target_desc = "EKVX"
answer_label = "inactive"

[[record]]
compound = "O=CC1=CCCC2(C1)OCCO2"
target_desc = "EKVX"
answer_label = "inactive"

[[record]]
compound = "Cc1c/c(=N\\c2ccc3c(c2)c(N)cc(C)[n+]3C)nc(N)n1C"
target_desc = "EKVX"
answer_label = "inactive"

[[record]]
compound = "O[C@H]1[C@H](O)[C@@H](O)[C@@]2(O)C[C@@H](O)[C@@H]1N2"
target_desc = "EKVX"
answer_label = "inactive"

[[record]]
compound = "CC1(CO)C(O)CCC2(C)C1C(O)CC1CC3CC12CCC3(O)CO (stereo unspecified)"
target_desc = "EKVX"
answer_label = "inactive"


[in] Please let me know the test result on file for COc1cc2c(cc1OCCCCN1CCN(CCCCOc3cc4c(cc3OC)C(=O)N3CCC[C@H]3C=N4)CC1)N=C[C@@H]1CCCN1C2=O .
[out] active

[in] Please let me know the test result on file for COC(=O)C(=O)C(C(=O)C(=O)Nc1cc(C)ccc1C)c1nc2ccc(C(=O)c3ccccc3)cc2nc1O (stereo unspecified) .
[out] inactive

[in] Please let me know the test result on file for [N-]=[N+]=NC[C@H]1OCO[C@H](CN=[N+]=[N-])[C@@H](OCCOCCCl)[C@@H]1OCCOCCCl .
[out] inactive

[in] Please let me know the test result on file for NC(=O)c1cccc(/N=c2\oc3ccc(Br)cc3cc2-c2nc3ccccc3[nH]2)c1 .
[out] inactive

[in] Please let me know the test result on file for COc1ccc(OC)c2nc3c(C(=O)NCCN(C)C)cccc3nc12 .
[out] inactive

[in] Please let me know the test result on file for c1cncc(C2c3[nH]c4ccccc4c3CCN2CCCN2CCCCC2)c1 (stereo unspecified) .
[out] inactive

----------
Reported GI50 values for the following compounds.
# Test system: NCI-H226
# Method Notes: NCI tumour cell line growth inhibition, 48 h
Activity calls are given as the source filed them. Cut-off read from the data, not from the text of the source: active = GI50 up to about 1.1 µM and inactive = higher.

Worked examples, 6 compounds total:
[[record]]
compound = "N#CC(NNC(=O)c1c(Cl)c(Cl)c(Cl)c(Cl)c1-c1nc2cc(C(=O)c3ccccc3)ccc2[nH]1)c1cccc(Oc2ccccc2)c1 (stereo not given)"
result = "21.3 µM (inactive)"

[[record]]
compound = "Cc1nc2nn[nH]n2c(=O)c1CCO"
result = "> 100 µM (inactive)"

[[record]]
compound = "Cc1cc(OCC(O)CO)ccc1Cl (stereo not given)"
result = "> 100 µM (inactive)"

[[record]]
compound = "COC(=O)[C@]12CCC(C)[C@H](C)[C@H]1C1=CCC3[C@@]4(C)CC[C@H](OC(C)=O)C(C)(C)C4CC[C@@]3(C)C1(C)C(O)C2 (stereo not given in full)"
result = "27.1 µM (inactive)"

[[record]]
compound = "COc1cc2c(cc1OC)C1Cc3ccccc3CN1CCC2 (stereo not given)"
result = "90.6 µM (inactive)"

[[record]]
compound = "O=C(O)Cc1ccccc1CCc1ccccc1Cl"
result = "68.1 µM (inactive)"


[in] Endpoint output: GI50 of C(#C[C@@]12CCC[C@@H]1N(Cc1ccccc1)CO2)c1ccc2c(c1)OCO2 . Value?
[out] > 100 µM (inactive)

[in] Endpoint output: GI50 of COc1cc(Nc2nc3cc(C(F)(F)F)ccc3nc2C)cc(OC)c1OC . Value?
[out] 5.14 µM (inactive)

[in] Endpoint output: GI50 of COc1ccc(NC(=O)CC/C(CC(=O)C(C)(C)C)=N\NC(=O)C(=O)NN)cc1 . Value?
[out] > 100 µM (inactive)

[in] Endpoint output: GI50 of COc1cccc(C2CC(C)(O)Oc3cc4c(cc32)OCO4)c1O (stereo not given) . Value?
[out] 17.4 µM (inactive)

[in] Endpoint output: GI50 of Nc1cc(S(N)(=O)=O)ccc1SSc1ccc(S(N)(=O)=O)cc1N . Value?
[out] > 100 µM (inactive)

[in] Endpoint output: GI50 of CC(C)(C)[C@H]1CO[C@]2(c3ccccc3)[C@@H]3C[C@@H]3C(=O)N12 . Value?
[out] > 100 µM (inactive)

[in] Endpoint output: GI50 of COC(=O)C(CCSC)NC(=O)Cc1ccc(C(=O)c2ccccc2)cc1 (stereo not given) . Value?
[out] 78.5 µM (inactive)

[in] Endpoint output: GI50 of COc1cc(/C=C/C(=N\NS(=O)(=O)c2ccc(C)cc2)c2sc(NNC(C)=O)nc2C)ccc1O . Value?
[out] > 100 µM (inactive)

[in] Endpoint output: GI50 of CN(C)Cc1ccc(O)c(CN(C)C)n1 . Value?
[out] > 100 µM (inactive)

[in] Endpoint output: GI50 of NNS(=O)(=O)c1cc(C(=O)O)cc(C(=O)O)c1 . Value?
[out] > 100 µM (inactive)

----------
# Tested on: DU-145
# Method Notes: NCI tumour cell line growth inhibition, 48 h
The source made the active and inactive calls. No stated cut-off is given here; in the data, active = GI50 up to about 1.1 µM and inactive = higher.
Reported GI50 values for the following compounds.

Worked examples, 10 compounds total:
[[record]]
compound = "N#CC(NNC(=O)c1c(Cl)c(Cl)c(Cl)c(Cl)c1-c1nc2cc(C(=O)c3ccccc3)ccc2[nH]1)c1cccc(Oc2ccccc2)c1 (stereo unspecified)"
result = "28.3 µM (inactive)"

[[record]]
compound = "CC#CC#C/C=C1\\C=CC2(OC=CC2OC(C)=O)O1 (stereo unspecified)"
result = "20.4 µM (inactive)"

[[record]]
compound = "CN(C)CCNC(=O)c1nc([N+](=O)[O-])cn1C"
result = "> 100 µM (inactive)"

[[record]]
compound = "CCS(=O)(=O)c1c2cc(OC)ccc2nc2ccc(OC)cc12"
result = "> 100 µM (inactive)"

[[record]]
compound = "COc1ccc(C(O)c2ccccn2)cc1 (stereo unspecified)"
result = "> 100 µM (inactive)"

[[record]]
compound = "NC(=O)N/N=C/c1ccccc1O"
result = "> 100 µM (inactive)"

[[record]]
compound = "CC(NC(=O)C(NC(=O)CNC(=O)OC(C)(C)C)C(C)C)C(=O)Oc1c(Cl)c(Cl)c(Cl)c(Cl)c1Cl (stereo unspecified)"
result = "20.5 µM (inactive)"

[[record]]
compound = "N#CC1(C#N)C2CCCCC23OC(=N)C1(C#N)C(c1ccccc1)O3 (stereo unspecified)"
result = "20.5 µM (inactive)"

[[record]]
compound = "c1csc(-c2cscc2-c2cccs2)c1"
result = "1.31 µM (inactive)"

[[record]]
compound = "C[C@]1(O)CC(=O)c2c(c(-c3ccc4cc5c(c(O)c4c3O)C(=O)C[C@@](C)(O)C5)c3cccc(O)c3c2O)C1"
result = "5.53 µM (inactive)"


Could you now look at the following compound, please?
[in] Endpoint output: GI50 of NCCSS(=O)(=O)CCN . Value?
[out] > 100 µM (inactive)

----------
# Tested on: SF-268
# Method Notes: NCI tumour cell line growth inhibition, 48 h
Activity calls are given as the source filed them. Cut-off read from the data, not from the text of the source: active = GI50 up to about 1.1 µM and inactive = higher.
Thanks in advance; please answer with one of these: active, inactive

[[record]]
compound = "c1ccc(CCCNc2nnnc3ccccc23)cc1"
answer_label = "inactive"

[[record]]
compound = "CO/N=C(/C(=O)N(C(=O)/C(=N/OC)c1csc(NC(c2ccccc2)(c2ccccc2)c2ccccc2)n1)n1cnn(CC(=O)OC(C)(C)C)c1=O)c1csc(NC(c2ccccc2)(c2ccccc2)c2ccccc2)n1"
answer_label = "inactive"

[[record]]
compound = "COc1cc(C2c3cc4c(cc3OC3(OC)COC(=O)C23)OCO4)cc(OC)c1OC (stereo unspecified)"
answer_label = "active"

[[record]]
compound = "Cc1n[n+]([O-])c(C)cc1[N+](=O)[O-]"
answer_label = "inactive"

[[record]]
compound = "CCOC(=O)/C(C(C)=O)=C1/N[C@H](C(=O)OCC)CS1"
answer_label = "inactive"

[[record]]
compound = "COc1cc2c(cc1OCCCCN1CCN(CCCCOc3cc4c(cc3OC)C(=O)N3CCC[C@H]3C=N4)CC1)N=C[C@@H]1CCCN1C2=O"
answer_label = "active"

[[record]]
compound = "CC(CNC(N)=O)NC(N)=O (stereo unspecified)"
answer_label = "inactive"

[[record]]
compound = "NC(=S)N/N=C/C(=C/Nc1ccccc1)[N+](=O)[O-]"
answer_label = "inactive"


[in] Please let me know the test result on file for CC(C)(C)NCc1cc(C(C)(C)C)cc(-c2ccc(Cl)cc2)c1O .
[out] inactive

[in] Please let me know the test result on file for CCc1c(Cl)nc(Cl)nc1Cl .
[out] active

[in] Please let me know the test result on file for COC(=O)c1cc(/C=C\c2cc(OC)ccc2OC)ccc1OC .
[out] inactive
